Test system: SF-295 CNS
Experiment: NCI-60 one-dose screen, 48 h
Setup conditions: 10 µM unless noted
The panel holds about 83,000 compounds, 20% with a hit somewhere; the sample as a whole holds those more often. Activity calls are given as the source filed them. Rule for the calls: active = growth percent below 10; inactive = the rest.
Outcome codes: 1 for active, -1 for inactive

[[record]]
substance_smiles = "Oc1ccc(-c2nc3ccc(/C(=N\\N=C\\c4ccc(Cl)cc4)c4ccccc4)cc3[nH]2)cc1"
class_assignment = -1

[[record]]
substance_smiles = "Clc1cccc(/C=N/Nc2nc(N/N=C/c3cccc(Cl)c3)nc(N3CCCCC3)n2)c1"
class_assignment = -1

[[record]]
substance_smiles = "N#Cc1c(-c2cccs2)cc(-c2cnccn2)nc1SCC(=O)N/N=C/c1ccc(Cl)cc1"
class_assignment = -1

[[record]]
substance_smiles = "C#CCN(C)CCCOc1ccc(NCc2ccc(C(=O)NO)cc2)cc1Cl"
class_assignment = 1

[[record]]
substance_smiles = "CC(C)(C)c1cc(NC(=O)Nc2ccc(-c3cn4c5c(sc4n3)CCc3c[nH]cc3-5)cc2)no1"
class_assignment = 1


====

Tested on: SNB-19 CNS
Experiment: NCI-60 one-dose screen, 48 h (100 = growth as untreated, 0 = no growth, -100 = all killed)
Setup conditions: 10 µM unless noted
About 83,000 compounds went through this panel and 20% of them were active in at least one assay; those are over-represented in the sample as a whole.
Recorded growth by entry
Readout name: growth (%)

[[record]]
compound = "Cn1cc(C2=C(c3coc4cc(Br)ccc34)C(=O)NC2=O)c2ccccc21"
readout_unit = "%"
measured_result = 90.7

[[record]]
compound = "CC(Nc1ncnc2ccc(-c3cnc(N)nc3)cc12)c1ccccc1 (configuration not stated)"
readout_unit = "%"
measured_result = 40

[[record]]
compound = "N#C/C(=C\\c1cccc2c1OCO2)C(=O)Nc1sc2c(c1C#N)CCCC2"
readout_unit = "%"
measured_result = 95.4

[[record]]
compound = "O=C(CCCCCCNC(=O)C(O)(O)C(F)(F)F)Nc1ncc(-c2ccc(Br)cc2)s1"
readout_unit = "%"
measured_result = 2.52

[[record]]
compound = "O=C(CCCCCCN1CC(=O)N2[C@@H](c3ccc(Cl)s3)c3[nH]c4ccccc4c3C[C@H]2C1=O)NO"
readout_unit = "%"
measured_result = 52.2

[[record]]
compound = "Cc1cc(Br)ccc1-n1cc(C#N)c(N)c1C(=O)c1ccc(Br)cc1"
readout_unit = "%"
measured_result = 96.3

[[record]]
compound = "O=C1Nc2ccc(F)cc2/C1=C\\C(=O)c1ccc(NS(=O)(=O)c2ccccc2)cc1"
readout_unit = "%"
measured_result = 95.6

[[record]]
compound = "Cc1ccc2c(n1)C(=O)C(Cl)=C(Nc1ccc(C)c(C)c1)C2=O"
readout_unit = "%"
measured_result = 56.2

[[record]]
compound = "O=C(/C=C/c1cccc(F)c1)c1cccc(OCCCOc2cccc(C(=O)/C=C/c3cccc(F)c3)c2)c1"
readout_unit = "%"
measured_result = 65.1

[[record]]
compound = "Cc1ccc(S(=O)(=O)NCCCNc2nccc(-c3[nH]c(-c4ccccc4)nc3-c3ccc(F)c(O)c3)n2)cc1"
readout_unit = "%"
measured_result = 107

[[record]]
compound = "COc1cccc2c1C=CC1(O2)Oc2cccc(OC)c2C=C1C (configuration not stated)"
readout_unit = "%"
measured_result = 22.8

[[record]]
compound = "CCN(CC)CCOc1ccc(C(=C(c2ccccc2)C2CCCC2)c2ccc(OCCN(CC)CC)cc2)cc1"
readout_unit = "%"
measured_result = 14.6

[[record]]
compound = "CC[C@]12CC(C(=O)OC)=C3Nc4ccccc4[C@@]34CCN(C14)[C@@H]1c3cc4c(cc3O[C@@H]1[C@H]2O)NC1=C(C(=O)OC)C[C@@]2(CC)C3N(CC[C@@]143)C[C@H]1O[C@H]12 (some centres not stated)"
readout_unit = "%"
measured_result = 14.2

[[record]]
compound = "CC(=C(c1ccc(OCCN2CCCC2)cc1)c1ccc(OCCN2CCCC2)cc1)c1ccc(Cl)cc1"
readout_unit = "%"
measured_result = -48.8

[[record]]
compound = "O=C(CSc1nnc(-c2ccc(Cl)cc2)n1-c1ccccc1)Nc1ccccc1Cl"
readout_unit = "%"
measured_result = 82.4

[[record]]
compound = "O=C1[C@@H]2Cc3c([nH]c4ccccc34)[C@H](c3ccc(Br)cc3)N2C(=O)CN1C1CCN(Cc2c(Cl)cccc2Cl)CC1"
readout_unit = "%"
measured_result = 92.2

[[record]]
compound = "COc1ccc(OC)c(CCn2cncc2-c2c[nH]c3ccc(Cl)cc23)c1"
readout_unit = "%"
measured_result = 60.4

[[record]]
compound = "CCCCCC[n+]1ccc(SCC(=O)n2ccc3ccccc32)c2ccccc21"
readout_unit = "%"
measured_result = 86.8

[[record]]
compound = "COC(=O)CCSC1=C(C)C(=O)c2ccccc2C1=O"
readout_unit = "%"
measured_result = 96.5

[[record]]
compound = "O=c1[nH][nH]c(-c2ccc(F)cc2)c1-c1nc2ccccc2s1"
readout_unit = "%"
measured_result = 80.5

[[record]]
compound = "CCCCCCNC(=O)Oc1ccc(/C(=C(/C)c2ccc(OC)cc2)c2ccc(OCCN3CCCCCC3)cc2)cc1"
readout_unit = "%"
measured_result = 39.2

[[record]]
compound = "Fc1ccc2nc(-c3cnn4cccnc34)sc2c1"
readout_unit = "%"
measured_result = 82.1

[[record]]
compound = "Cc1ccc(C(=O)CSc2nnc(-c3ccc(-c4ccc(Cl)cc4)nc3C)o2)cc1"
readout_unit = "%"
measured_result = 99.3

[[record]]
compound = "CC[C@]12C=CCN3CC[C@]4(C(=C(C(=O)OC)C1)Nc1cc5c(cc14)[C@@H]1[C@H](O5)[C@@H](O)[C@@]4(CC)CC(C(=O)OC)=C5Nc6cc(O)ccc6[C@@]56CCN1C46)C32 (some centres not stated)"
readout_unit = "%"
measured_result = 23.4

[[record]]
compound = "COc1cc(/C=N\\NC(=O)c2ccc3nc(-c4ccc(Br)cc4)[nH]c3c2)cc(OC)c1OC"
readout_unit = "%"
measured_result = 59.3

[[record]]
compound = "COc1cccc2c1[C@H](OC)[C@]13O[C@@]1(C2=O)[C@H](O)[C@H](C)[C@@](O)(C(=O)[C@@H]1O[C@H]1C)[C@@H]3O"
readout_unit = "%"
measured_result = 1.38

[[record]]
compound = "CC(Nc1c(C#N)cnc2ccc(-c3cncc(O)c3)cc12)c1ccccc1 (configuration not stated)"
readout_unit = "%"
measured_result = -6.67

[[record]]
compound = "COc1ccccc1N1CCN(C2=C(Cl)C(=O)c3ncccc3C2=O)CC1"
readout_unit = "%"
measured_result = 88.8

[[record]]
compound = "COc1ccc(C(C)=C(c2ccc(OCCN(C)C)cc2)c2ccc(OCCN(C)C)cc2)cc1"
readout_unit = "%"
measured_result = 12.6

[[record]]
compound = "O=C(Nc1ccc(N=Cc2c(O)[nH]c3ccccc23)cc1)Nc1ccc(S(=O)(=O)Nc2ncccn2)cc1"
readout_unit = "%"
measured_result = 101

[[record]]
compound = "CCOC(=O)c1cccnc1Nc1ccc(NC(=O)Nc2ccc(Cl)c(C(F)(F)F)c2)cc1"
readout_unit = "%"
measured_result = 49.3

[[record]]
compound = "Cc1ccc(C(=O)Nc2ccc(CNCCN3CCOCC3)c(C(F)(F)F)c2)cc1C#Cc1cnc2cccnn12"
readout_unit = "%"
measured_result = 36.6

[[record]]
compound = "CCNC(=O)Oc1ccc(/C(=C(/C)c2ccc(Cl)cc2)c2ccc(OCCN3CCCCCC3)cc2)cc1"
readout_unit = "%"
measured_result = 34.2

[[record]]
compound = "CC1=C(C)C(=O)C(Nc2ccc3c(c2)OCO3)=C(Br)C1=O"
readout_unit = "%"
measured_result = 93.8

[[record]]
compound = "COc1ccc(N2CCN(C3=C(Cl)C(=O)c4ncccc4C3=O)CC2)cc1"
readout_unit = "%"
measured_result = 94.7

[[record]]
compound = "Cc1ccc(C(=O)CSc2nc3ccccc3c(=O)n2C)cc1"
readout_unit = "%"
measured_result = 94.9

[[record]]
compound = "Cc1ncn(-c2ccc(/C=N/Nc3ccnc4cc(Cl)ccc34)cc2)c1C"
readout_unit = "%"
measured_result = 42.3


====

System: IGROV1 ovarian
Experiment: NCI-60 one-dose screen, 48 h (100 = growth as untreated, 0 = no growth, -100 = all killed)
Setup conditions: 10 µM unless noted
Compounds without any hit were thinned out: in the full panel of roughly 83,000, 20% have a hit.
Binary label based on growth with cut-off 50%: below gives Y, not below gives N.

[[record]]
molecule = "O=C1Nc2ccccc2/C1=C/c1ccc(OCC(=O)c2ccccc2)cc1"
class_assignment = "N"

[[record]]
molecule = "COc1ccccc1Cn1cc(C#N)c(N)c1C(=O)c1ccc(Br)cc1"
class_assignment = "N"

[[record]]
molecule = "O=C(/C=C/Nc1ccc(S(=O)(=O)Nc2ncccn2)cc1)c1ccc(N=Cc2c(O)[nH]c3ccccc23)cc1"
class_assignment = "N"

[[record]]
molecule = "Cc1ccccc1Nc1nc(SC(C)C)nc(-c2ccccc2)c1C#N"
class_assignment = "Y"

[[record]]
molecule = "NC(=O)n1c(=O)n(-c2cccc(C(F)(F)F)c2)c(=O)c2cc(-c3ccc(F)cc3F)ccc21"
class_assignment = "Y"

[[record]]
molecule = "O=C(CSc1nnc(-c2ccc(Cl)cc2)n1-c1ccccc1)Nc1cccc(F)c1"
class_assignment = "Y"

[[record]]
molecule = "O=S1SC(c2ccccc2)=NN1c1cc(F)cc(F)c1 (stereo unspecified)"
class_assignment = "N"

[[record]]
molecule = "Cn1ncc2c(C(=O)c3ccc(F)cc3)nc(C(C)(C)C)nc21"
class_assignment = "N"

[[record]]
molecule = "C#CCn1cc(/C=N/Nc2nc(-c3ccc(Br)cc3)cs2)c2ccccc21"
class_assignment = "N"

[[record]]
molecule = "N#C/C(=C\\c1cccc2c1OCO2)C(=O)Nc1sc2c(c1C#N)CCCC2"
class_assignment = "N"

[[record]]
molecule = "Cc1ccc(C(=O)CSc2nc3ccccc3c(=O)n2C)cc1"
class_assignment = "N"

